src = paper PMC9735621

MEASUREMENT_NOTES: Cytotoxicity, resazurin cell viability assay
Assay type: cell-based, human
CONDITION_SET: human, SH-SY5Y neuroblastoma cells; SH-SY5Y cells, 48 h; mean ± SEM
ASSAY_READOUT: CC50 at 48 h (µM)
Numbers only, in µM.

1. O=C(N/N=C\c1ccc[nH]1)c1nnc(-c2ccccc2)o1    50

Please state CC50 at 48 h for every molecule in the list that follows.
1. O=C(N/N=C\c1ccncc1)c1nnc(-c2ccccc2)o1
2. O=C(N/N=C\c1ccccn1)c1nnc(-c2ccccc2)o1

[out]
[128, 100]

----------
ASSAY_READOUT: melting point

1. O=C(N/N=C\c1ccccn1)c1nnc(-c2ccccc2)o1 [1l]    242 to 243 °C

Please state melting point for every compound in the list that follows.
1. O=C(N/N=C\c1ccccc1)c1nnc(-c2ccccc2)o1 [1h]
2. O=C(N/N=C\c1ccccn1)c1nnc(-c2ccncc2)o1 [1e]
3. O=C(N/N=C\c1ccc[nH]1)c1nnc(-c2ccccc2)o1 [1k]
4. O=C(N/N=C\c1ccncc1)c1nnc(-c2ccccc2)o1 [1m]
5. O=C(N/N=C\c1ccco1)c1nnc(-c2ccccc2)o1 [1n]
6. O=C(N/N=C\c1ccccc1)c1nnc(-c2ccncc2)o1 [1a]
7. O=C(N/N=C\c1ccco1)c1nnc(-c2ccncc2)o1 [1g]
8. O=C(N/N=C\c1ccc(Cl)cc1)c1nnc(-c2ccccc2)o1 [1i]

[out]
1. 194 to 196 °C
2. 255 to 259 °C
3. 185 to 187 °C
4. 243 to 245 °C
5. 221 to 223 °C
6. 207 to 209 °C
7. 236 to 242 °C
8. 243 to 245 °C

Record Cc1ccc(C=NNC(=O)c2nnc(-c3ccccc3)o2)cc1 (mixture of isomers) [1j] . Reported melting point: 200 to 202 °C
